- tested-target: UniProt:Q9H2X9
- Sequence (Q9H2X9 whole entry): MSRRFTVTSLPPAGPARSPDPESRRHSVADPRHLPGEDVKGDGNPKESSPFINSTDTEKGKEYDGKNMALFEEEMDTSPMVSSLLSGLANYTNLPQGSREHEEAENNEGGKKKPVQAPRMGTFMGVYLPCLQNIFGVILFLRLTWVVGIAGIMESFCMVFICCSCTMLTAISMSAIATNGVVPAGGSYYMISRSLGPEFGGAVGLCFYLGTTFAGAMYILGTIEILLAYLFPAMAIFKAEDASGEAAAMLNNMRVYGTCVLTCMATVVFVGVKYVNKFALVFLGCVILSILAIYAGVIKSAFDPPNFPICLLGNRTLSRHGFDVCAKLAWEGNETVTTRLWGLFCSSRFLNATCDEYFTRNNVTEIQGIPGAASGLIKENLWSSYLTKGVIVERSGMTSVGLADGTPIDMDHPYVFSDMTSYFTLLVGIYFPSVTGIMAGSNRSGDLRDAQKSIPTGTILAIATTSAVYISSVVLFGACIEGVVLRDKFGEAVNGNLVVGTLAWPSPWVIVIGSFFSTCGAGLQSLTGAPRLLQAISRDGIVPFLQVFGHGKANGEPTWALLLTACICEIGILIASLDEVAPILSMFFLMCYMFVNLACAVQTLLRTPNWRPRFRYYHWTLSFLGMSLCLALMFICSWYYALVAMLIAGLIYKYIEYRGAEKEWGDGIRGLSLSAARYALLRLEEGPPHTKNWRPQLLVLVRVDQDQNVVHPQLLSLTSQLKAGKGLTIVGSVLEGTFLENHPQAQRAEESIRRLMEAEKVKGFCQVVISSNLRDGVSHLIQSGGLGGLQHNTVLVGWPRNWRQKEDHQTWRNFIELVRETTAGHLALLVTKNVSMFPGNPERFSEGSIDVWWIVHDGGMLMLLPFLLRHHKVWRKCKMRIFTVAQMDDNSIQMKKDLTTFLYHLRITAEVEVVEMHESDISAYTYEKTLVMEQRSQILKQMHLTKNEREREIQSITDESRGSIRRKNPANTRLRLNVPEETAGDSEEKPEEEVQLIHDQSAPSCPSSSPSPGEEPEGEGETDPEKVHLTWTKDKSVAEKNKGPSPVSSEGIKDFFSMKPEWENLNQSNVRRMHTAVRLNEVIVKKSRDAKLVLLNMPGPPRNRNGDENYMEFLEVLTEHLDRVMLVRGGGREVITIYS
- assay-details: concentration-response of KCC2 transport modulators – cell-based, HEK293 KCC2, FluoZin-2 fluorescence, dose response (AID 1736)
Below: a set of entries, each annotated with reported pEC50.
Hey, just a heads up that pEC50 is the negative log base 10 of the concentration in molar.

Worked examples, 3 compounds total:
                                   compound  data_value
0  NC(=S)NN=C1C(=O)N(Cc2ccc(F)cc2)c2ccccc21        5.10
1    N#Cc1nc(Cc2cccc3ccccc23)oc1NCCN1CCOCC1        5.03
2                    COC(=O)c1sccc1NC(=S)OC        5.83

Query (compound): O=C(NC1CCCC1)C(c1ccncc1)N(Cc1ccco1)C(=O)c1ccc(-c2ccccc2)[nH]1 (stereo not given) [MLS000718066] ; field requested: pEC50
5.09

Same question, Cc1ccc(-c2n[nH]c(=S)n2NC=CCc2ccccc2[N+](=O)[O-])cc1 this time
5.89
